Let's look at some molecules and their measured pIC50.
Target: pEGFR, A431 cells (wildtype EGFR) (Homo sapiens)
Construct: pEGFR (Tyr1068) TR-FRET
Sequence (P00533 25-1210): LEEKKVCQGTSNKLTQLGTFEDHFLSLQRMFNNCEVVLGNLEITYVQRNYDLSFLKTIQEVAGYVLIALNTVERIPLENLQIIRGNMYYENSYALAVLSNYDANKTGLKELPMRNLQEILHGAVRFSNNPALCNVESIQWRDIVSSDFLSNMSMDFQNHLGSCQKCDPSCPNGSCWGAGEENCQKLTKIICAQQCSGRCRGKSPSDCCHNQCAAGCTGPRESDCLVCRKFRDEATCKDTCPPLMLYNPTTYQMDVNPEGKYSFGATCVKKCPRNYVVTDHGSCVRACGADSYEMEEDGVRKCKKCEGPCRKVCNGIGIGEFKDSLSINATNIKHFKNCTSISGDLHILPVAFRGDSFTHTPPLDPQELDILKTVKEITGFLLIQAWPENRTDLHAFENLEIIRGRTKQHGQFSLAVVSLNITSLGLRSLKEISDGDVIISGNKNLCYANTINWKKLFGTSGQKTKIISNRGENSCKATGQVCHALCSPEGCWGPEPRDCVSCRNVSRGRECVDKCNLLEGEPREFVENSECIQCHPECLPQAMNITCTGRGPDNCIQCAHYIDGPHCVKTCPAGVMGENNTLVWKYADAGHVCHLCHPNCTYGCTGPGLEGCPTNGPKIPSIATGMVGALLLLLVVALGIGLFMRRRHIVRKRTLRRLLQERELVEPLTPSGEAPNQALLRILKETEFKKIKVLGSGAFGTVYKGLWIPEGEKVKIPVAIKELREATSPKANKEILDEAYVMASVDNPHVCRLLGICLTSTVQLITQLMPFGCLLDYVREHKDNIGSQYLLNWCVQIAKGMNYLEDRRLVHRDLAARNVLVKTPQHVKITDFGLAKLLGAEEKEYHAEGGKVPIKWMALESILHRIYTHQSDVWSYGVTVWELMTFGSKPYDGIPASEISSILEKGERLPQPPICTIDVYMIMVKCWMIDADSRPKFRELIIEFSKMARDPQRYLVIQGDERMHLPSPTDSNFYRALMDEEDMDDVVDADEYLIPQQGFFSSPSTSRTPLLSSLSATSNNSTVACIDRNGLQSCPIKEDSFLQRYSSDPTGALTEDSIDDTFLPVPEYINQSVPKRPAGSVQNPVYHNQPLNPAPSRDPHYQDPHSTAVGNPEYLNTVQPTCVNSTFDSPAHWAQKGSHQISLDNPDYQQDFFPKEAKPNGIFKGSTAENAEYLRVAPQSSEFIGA
Experiment: Cellular EGFR phosphorylation assay (LANCE Ultra TR-FRET) in A431 cells
Type: cell-based
Conditions: 4 hours at 37° C., 40 ng/mL EGF for the final 10 minutes, read-out: A431 pEGFR IC50
Protocol: Cellular EGFR Phosphorylation Assays EGFR phosphorylation assays were conducted in NSCLC cells with EGFR activation mutations. […] EGFR phosphorylation was measured using phospho-EGFR (Try1068) LANCE Ultra TR-FRET Detection Kit (TRF4015M) from PerkinElmer according to manufacturer's instructions. […] After 4-6 hours of incubation at room temperature, plates were then read on a TECAN Sparks multimode microplate reader. […]
pIC50: −log10 of the molar value.
READOUT: pIC50

> print(dat)
                        structure.as.smiles  readout  test.result
1  CCOc1nn(CCO)c2c1/C=C/c1n[nH]c3cnc(cc13)-c1c(C)nn(C)c1O[C@@H](C)CN(C(C)C)C2    pIC50         8.09
2  CCOc1nn(C[C@H](C)O)c2c1/C=C/c1n[nH]c3cnc(cc13)-c1c(C)nn(C)c1O[C@@H](C)CN(C)C2    pIC50         8.12
3  CCOc1nn(CCO)c2c1/C=C/c1n[nH]c3cnc(cc13)-c1c(C)nn(C)c1OC[C@H]1CCCN1C2    pIC50         7.64
4  Cc1nn(C)c2c1-c1cc3c(n[nH]c3c(C)n1)/C=C/c1c(OCC#N)nn(CCO)c1CN(C)C[C@H](C)O2    pIC50         7.24
